Molecular target: human β3-adrenergic receptor (Homo sapiens, UniProt P13945)
Construct: expressed in transfected cells
Sequence (P13945 whole entry): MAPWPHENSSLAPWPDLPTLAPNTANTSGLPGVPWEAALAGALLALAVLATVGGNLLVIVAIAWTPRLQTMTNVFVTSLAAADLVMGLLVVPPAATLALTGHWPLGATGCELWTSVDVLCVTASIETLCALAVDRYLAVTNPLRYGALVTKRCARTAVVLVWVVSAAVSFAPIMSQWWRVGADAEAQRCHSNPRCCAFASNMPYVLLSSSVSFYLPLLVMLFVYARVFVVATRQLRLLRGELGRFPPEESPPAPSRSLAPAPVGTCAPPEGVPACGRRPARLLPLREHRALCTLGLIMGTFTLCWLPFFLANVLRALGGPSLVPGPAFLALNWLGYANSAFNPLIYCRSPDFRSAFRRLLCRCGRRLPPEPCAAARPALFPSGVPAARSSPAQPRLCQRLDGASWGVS
Test: cAMP levels in CHO-K1 cells expressing the human β3-adrenergic receptor
Type: cell-based
Details: CHO-K1, 0.25 h, 15 min, read-out: Activity (intracellular cAMP compared to that of isoproterenol)
Method: CHO-K1 cells stably expressing the human β3-adrenergic receptors were serum-starved overnight and stimulated with an agonist, final concentration 1×10^−5 M, for 15 min in stimulation buffer (HBSS supplemented with 1% BSA, 5 mM HEPES and 1 mM IBMX, pH 7.4) The medium was then aspirated and to end the reaction, 100 μL of 95% EtOH was added to each well of the 24-well plate and cells were kept at −20° C. overnight. […]
Outcome Measure: Emax at 10 µM

> print(dat)
                               query.smiles  reported.value
1  CC(C)(C[C@@H]1CCCN(C(=O)C(F)(F)F)C1)NC[C@H](O)c1cccc(F)c1       50 to 75%
2             CC1(NC[C@H](O)c2cccc(F)c2)CC1       50 to 75%
3  COC(=O)[C@H]1CC[C@H](CCC(C)(C)NC[C@H](O)c2cncc(F)c2)CC1       50 to 75%

Exam item: I am curious: what Emax at 10 µM value has been reported for `O[C@H](c1cccc(F)c1)[C@H]1CC[C@@H](Cc2ccc(Cl)cc2)N1` ?
Marked response: > 75%

Exam item: I am curious: what Emax at 10 µM value has been reported for `CC(C)(C)[C@H]1CC[C@H]([C@H](O)c2cccc(F)c2)N1` ?
Marked response: 50 to 75%

----------
Emax at 10 µM: recorded values
Biological target: human β3-adrenergic receptor (Homo sapiens)
Construct: expressed in transfected cells
Assay: cAMP levels in CHO-K1 cells expressing the human β3-adrenergic receptor
Assay type: cell-based
Settings: CHO-K1, 0.25 h, 15 min, read-out: Activity (intracellular cAMP compared to that of isoproterenol)

> print(dat)
                               query.smiles  outcome.measure  reported.value
1    CCOCC12CCC([C@H](O)c3cncc(F)c3)(CC1)N2    Emax at 10 µM       50 to 75%
2  CC(C)(NC[C@H](O)c1cccc(F)c1)[C@H]1CC[C@H](NC(=O)c2ccccc2)CC1    Emax at 10 µM           > 75%
3  CC(C)CS(=O)(=O)N[C@H]1CC[C@H](CC(C)(C)NC[C@H](O)c2cncc(F)c2)CC1    Emax at 10 µM           > 75%

Exam item: I am curious: what Emax at 10 µM value has been reported for `CCCCNC[C@H](O)c1ccc(O)cc1` ?
Marked response: 50 to 75%

Exam item: I am curious: what Emax at 10 µM value has been reported for `CC(C)(C[C@H]1CC[C@H](NS(C)(=O)=O)CC1)NC[C@H](O)c1ccc(F)c(N)c1F` ?
Marked response: > 75%

Exam item: I am curious: what Emax at 10 µM value has been reported for `O[C@H](c1cncc(F)c1)C12CCC(COc3ccc(OC(F)(F)F)cc3)(CC1)N2` ?
Marked response: > 75%

Exam item: I am curious: what Emax at 10 µM value has been reported for `CC(C)(C)NC[C@H](O)c1cccc(N)c1F` ?
Marked response: > 75%

Exam item: I am curious: what Emax at 10 µM value has been reported for `CO[C@H]1CC[C@@H](CC(C)(C)NC[C@H](O)c2cccc(F)c2)CC1` ?
Marked response: 50 to 75%

Exam item: I am curious: what Emax at 10 µM value has been reported for `CC1(C)CC[C@H]([C@H](O)c2cccc(Cl)c2)N1` ?
Marked response: 50 to 75%
